The reported numbers originate from ChEMBL document CHEMBL2069298.

Documented fold change (FC) across a set of compounds
tested on: Mycolicibacterium smegmatis MC2 155; experiment: Inhibition of Multidrug resistance efflux pump in Mycobacterium smegmatis str. MC2 155 ATCC 700084 assessed as reduction in ciprofloxacin bromide MIC presence of test compound at 64 mg/L

{"COMPOUND": "CCCCC[C@H](O)C[C@@H](O)CCc1ccc(O)c(OC)c1", "fold change (FC)": 1}
{"COMPOUND": "CCCCC[C@H](O)C[C@H](O)CCc1ccc(O)c(OC)c1", "fold change (FC)": 1}
{"COMPOUND": "CCCCC[C@H](O)CC(=O)CCc1ccc(OC)c(OC)c1", "fold change (FC)": 1}
{"COMPOUND": "CCCCCC(=O)CC(=O)CCc1ccc(O)c(OC)c1", "fold change (FC)": 2}
{"COMPOUND": "CCCCC[C@H](O)CC(=O)CCc1ccc(O)c(OC)c1 [GINGEROL]", "fold change (FC)": 1}

###

test system: Mycolicibacterium smegmatis MC2 155; test: Inhibition of Multidrug resistance efflux pump in Mycobacterium smegmatis str. MC2 155 ATCC 700084 assessed as reduction in ethidium bromide MIC presence of test compound at 64 mg/L

{"SAMPLE_SMILES": "CCCCC[C@H](O)C[C@@H](O)CCc1ccc(O)c(OC)c1", "fold change (FC)": 2}
{"SAMPLE_SMILES": "CCCCC[C@H](O)C[C@H](O)CCc1ccc(O)c(OC)c1", "fold change (FC)": 2}
{"SAMPLE_SMILES": "CCCCCC(=O)CC(=O)CCc1ccc(O)c(OC)c1", "fold change (FC)": 8}
{"SAMPLE_SMILES": "CCCCC[C@H](O)CC(=O)CCc1ccc(OC)c(OC)c1", "fold change (FC)": 2}
{"SAMPLE_SMILES": "CCCCC[C@H](O)CC(=O)CCc1ccc(O)c(OC)c1", "fold change (FC)": 2}

###

tested on: Mycolicibacterium smegmatis MC2 155; test: Inhibition of Multidrug resistance efflux pump in Mycobacterium smegmatis str. MC2 155 ATCC 700084 assessed as reduction in isoniazid bromide MIC presence of test compound at 64 mg/L

{"SAMPLE_SMILES": "CCCCCC(=O)CC(=O)CCc1ccc(O)c(OC)c1", "fold change (FC)": 2}
{"SAMPLE_SMILES": "CCCCC[C@H](O)C[C@H](O)CCc1ccc(O)c(OC)c1", "fold change (FC)": 1}
{"SAMPLE_SMILES": "CCCCC[C@H](O)CC(=O)CCc1ccc(OC)c(OC)c1", "fold change (FC)": 1}
{"SAMPLE_SMILES": "CCCCC[C@H](O)C[C@@H](O)CCc1ccc(O)c(OC)c1", "fold change (FC)": 1}
{"SAMPLE_SMILES": "CCCCC[C@H](O)CC(=O)CCc1ccc(O)c(OC)c1", "fold change (FC)": 1}

###

test system: Mycolicibacterium smegmatis MC2 155; assay: Inhibition of Multidrug resistance efflux pump in Mycobacterium smegmatis str. MC2 155 ATCC 700084 assessed as reduction in rifampicin bromide MIC presence of test compound at 64 mg/L

{"MOLECULE": "CCCCC[C@H](O)CC(=O)CCc1ccc(OC)c(OC)c1", "fold change (FC)": 1}
{"MOLECULE": "CCCCC[C@H](O)C[C@H](O)CCc1ccc(O)c(OC)c1", "fold change (FC)": 1}
{"MOLECULE": "CCCCCC(=O)CC(=O)CCc1ccc(O)c(OC)c1", "fold change (FC)": 4}
{"MOLECULE": "CCCCC[C@H](O)CC(=O)CCc1ccc(O)c(OC)c1 [GINGEROL]", "fold change (FC)": 1}
{"MOLECULE": "CCCCC[C@H](O)C[C@@H](O)CCc1ccc(O)c(OC)c1", "fold change (FC)": 1}

###

test system: Mycolicibacterium smegmatis MC2 155; experiment: Inhibition of Multidrug resistance efflux pump in Mycobacterium smegmatis str. MC2 155 ATCC 700084 assessed as fractional inhibitory concentration index in presence of rifampicin
Documented fractional inhibitory concentration index (FICI) across a set of compounds
REPORTED_METRIC: fractional inhibitory concentration index (FICI)

{"COMPOUND": "CCCCCCCC(=O)CCc1ccc(O)c(OC)c1", "RECORDED_VALUE": 0.5}
{"COMPOUND": "CCCCCC(=O)CC(=O)CCc1ccc(O)c(OC)c1", "RECORDED_VALUE": 0.5}
{"COMPOUND": "CCCCc1ccc(CCc2ccc(O)c(OC)c2)o1", "RECORDED_VALUE": 0.19}
{"COMPOUND": "CCCCCCCC(O)CCc1ccc(O)c(OC)c1 (racemic)", "RECORDED_VALUE": 0.75}
{"COMPOUND": "CCCCC[C@H](O)CC(=O)CCc1ccc(O)c(OC)c1 [GINGEROL]", "RECORDED_VALUE": 2}
{"COMPOUND": "CCCCC[C@H](O)C[C@@H](O)CCc1ccc(O)c(OC)c1", "RECORDED_VALUE": 2}
{"COMPOUND": "CCCCC[C@H](O)C[C@H](O)CCc1ccc(O)c(OC)c1", "RECORDED_VALUE": 2}
{"COMPOUND": "CCCCC[C@H](O)CC(=O)CCc1ccc(OC)c(OC)c1", "RECORDED_VALUE": 2}
{"COMPOUND": "CCCCCCC[C@H](O)CC(=O)CCc1ccc(O)c(OC)c1", "RECORDED_VALUE": 1}
